Reported inhibition values are given for each entry in this list.
Target: Adenosine receptor A3 (Homo sapiens) (UniProt P0DMS8)
Sequence (whole entry): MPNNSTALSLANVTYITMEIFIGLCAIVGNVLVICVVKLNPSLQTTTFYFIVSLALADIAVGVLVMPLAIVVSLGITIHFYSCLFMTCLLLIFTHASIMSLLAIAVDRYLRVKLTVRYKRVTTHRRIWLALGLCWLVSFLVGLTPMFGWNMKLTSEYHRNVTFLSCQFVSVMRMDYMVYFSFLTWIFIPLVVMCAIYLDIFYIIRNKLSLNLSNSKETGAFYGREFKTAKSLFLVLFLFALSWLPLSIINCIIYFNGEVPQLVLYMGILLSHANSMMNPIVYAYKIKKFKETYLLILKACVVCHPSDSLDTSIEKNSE
Assay: Displacement of [3H]NECA from human adenosine A3 receptor expressed in human HeLa cells at 10 uM after 180 mins by beta scintillation counting
Assay type: cell-based

- compound: "CCC(CO)NC(=O)c1cc2cc(Br)ccc2oc1=N (stereo not drawn)"
  inhibition (%): 24
- compound: "COc1cccc2c1OC(C)(O)C(C(C)=O)=C2 (stereo not drawn)"
  inhibition (%): 30
- compound: "COc1cccc2cc(C(N)=O)c(=N)oc12"
  inhibition (%): 33
- compound: "COCCNC(=O)c1cc2cc(Cl)ccc2oc1=N"
  inhibition (%): 13
- compound: "COC(=O)/C(C#N)=C/c1cccc(OC)c1O"
  inhibition (%): 45
- compound: "COc1cccc2cc(C(=O)NCC(=O)O)c(=O)oc12"
  inhibition (%): 15
- compound: "N=c1oc2ccc(Br)cc2cc1C(=O)NCCCO"
  inhibition (%): 17
- compound: "O=C(O)CNC(=O)c1cc2ccccc2oc1=O"
  inhibition (%): 0
- compound: "O=C(NCCCN1CCN(CCCNC(=O)c2cc3ccccc3oc2=O)CC1)c1cc2ccccc2oc1=O"
  inhibition (%): 15
- compound: "COc1cccc2cc(C(=O)Nc3c(C#N)ncn3-c3ccccc3)c(=N)oc12"
  inhibition (%): 40
- compound: "O=C(NCCCO)c1cc2cccc(O)c2oc1=O"
  inhibition (%): 8
- compound: "COc1cccc2cc(C(=O)NCCCOCCCCOCCCNC(=O)c3cc4cccc(OC)c4oc3=N)c(=N)oc12"
  inhibition (%): 23
- compound: "O=C(NC1CCCC1)c1cc2ccccc2oc1=O"
  inhibition (%): 20
- compound: "COc1cccc2cc(C(=O)N[C@@H](CO)C(=O)O)c(=O)oc12"
  inhibition (%): 3
- compound: "O=C(NCC(O)CO)c1cc2cc(Cl)ccc2oc1=O (stereo not drawn)"
  inhibition (%): 1
- compound: "COc1cccc2cc(C(=O)NCCc3ccc(O)cc3)c(=N)oc12"
  inhibition (%): 30
- compound: "COc1cccc2cc(C(=O)NC(CO)(CO)CO)c(=N)oc12"
  inhibition (%): 18
- compound: "COc1cc(Br)cc2cc(C(=O)NCCCO)c(=N)oc12"
  inhibition (%): 23
- compound: "COc1cccc2cc(C(=O)Nc3c(C#N)ncn3-c3ccc(C#N)cc3)c(=N)oc12"
  inhibition (%): 1
- compound: "COc1ccc(-n2cnc(C#N)c2NC(=O)c2cc3cccc(OC)c3oc2=N)cc1"
  inhibition (%): 42
- compound: "N=c1oc2ccc(Br)cc2cc1C(=O)NC1CCCCC1"
  inhibition (%): 8
- compound: "COc1cccc2cc(C(=O)NCCCO)c(=N)oc12"
  inhibition (%): 1
- compound: "CCOC(CNC(=O)c1cc2cccc(OC)c2oc1=N)OCC"
  inhibition (%): 15
- compound: "O=C(NCC(O)CO)c1cc2cccc(O)c2oc1=O (stereo not drawn)"
  inhibition (%): 22
- compound: "COc1cccc2cc(C(=O)NC3CCCC3)c(=N)oc12"
  inhibition (%): 20
- compound: "O=C(NCCCO)c1cc2ccccc2oc1=O"
  inhibition (%): 6
- compound: "CCC(CO)NC(=O)c1cc2cc(Cl)ccc2oc1=N (stereo not drawn)"
  inhibition (%): 0
- compound: "COc1cccc2cc(C(=O)NCCCCCO)c(=N)oc12"
  inhibition (%): 13
- compound: "N=c1oc2ccc(Br)cc2cc1C(=O)NC1CCCC1"
  inhibition (%): 0
- compound: "COCCNC(=O)c1cc2cccc(OC)c2oc1=O"
  inhibition (%): 0
- compound: "CCC(CO)NC(=O)c1cc2cccc(OC)c2oc1=N (stereo not drawn)"
  inhibition (%): 6
- compound: "COCCNC(=O)c1cc2cccc(OC)c2oc1=N"
  inhibition (%): 15
- compound: "COc1cccc2cc(C(=O)Nc3c(C#N)ncn3-c3ccc(F)cc3)c(=N)oc12"
  inhibition (%): 20
- compound: "COc1cccc2cc(C(=O)NCCO)c(=O)oc12"
  inhibition (%): 1
- compound: "COc1cccc2cc(C(=O)NCC(O)CO)c(=O)oc12 (stereo not drawn)"
  inhibition (%): 1
- compound: "COc1cccc2cc(C(=O)NCCO)c(=N)oc12"
  inhibition (%): 23
- compound: "COc1cccc2cc(C(=O)NC3CCCCC3)c(=N)oc12"
  inhibition (%): 16
- compound: "N=c1oc2ccc(Br)cc2cc1C(=O)NCC(O)CO (stereo not drawn)"
  inhibition (%): 10
- compound: "COc1cccc2cc(C(=O)NCC(O)c3ccccc3)c(=N)oc12 (stereo not drawn)"
  inhibition (%): 8
- compound: "COc1cccc2cc(C(C)=O)c(=O)oc12"
  inhibition (%): 1
- compound: "N=c1oc2ccc(Br)cc2cc1C(=O)NCCO"
  inhibition (%): 0
- compound: "COc1cccc2cc(C(=O)NCCCN3CCN(CCCNC(=O)c4cc5cccc(OC)c5oc4=N)CC3)c(=N)oc12"
  inhibition (%): 20
- compound: "COc1cccc2cc(C(=O)NCCCNC(=O)c3cc4cccc(OC)c4oc3=N)c(=N)oc12"
  inhibition (%): 11

###

Reported inhibition values are given for each entry in this list.
Molecular target: Adenosine receptor A2b (Homo sapiens) (UniProt P29275)
Sequence (whole entry): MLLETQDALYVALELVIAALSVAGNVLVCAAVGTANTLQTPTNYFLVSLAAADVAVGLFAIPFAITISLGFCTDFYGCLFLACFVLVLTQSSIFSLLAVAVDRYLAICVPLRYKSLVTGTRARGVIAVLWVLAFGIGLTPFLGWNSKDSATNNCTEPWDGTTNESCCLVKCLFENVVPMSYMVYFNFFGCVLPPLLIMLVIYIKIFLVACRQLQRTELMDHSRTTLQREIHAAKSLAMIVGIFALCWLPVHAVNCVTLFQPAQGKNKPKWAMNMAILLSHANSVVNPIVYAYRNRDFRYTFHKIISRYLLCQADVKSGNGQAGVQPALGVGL
Test: Displacement of [3H]DPCPX from human adenosine A2B receptor expressed in HEK293 cells at 10 uM after 30 mins by beta scintillation counting
Assay type: cell-based
measurement_type: inhibition (%)

- compound: "COc1cccc2cc(C(N)=O)c(=N)oc12"
  value_qualifier: ">"
  reported_measurement: 70
- compound: "COc1cccc2cc(C(=O)NCCCNC(=O)c3cc4cccc(OC)c4oc3=N)c(=N)oc12"
  value_qualifier: ">"
  reported_measurement: 70
- compound: "COc1cccc2cc(C(=O)NCCc3ccc(O)cc3)c(=N)oc12"
  value_qualifier: ">"
  reported_measurement: 70
- compound: "COc1cccc2cc(C(=O)NCC(O)c3ccccc3)c(=N)oc12 (stereo unspecified)"
  value_qualifier: ">"
  reported_measurement: 70
- compound: "CCC(CO)NC(=O)c1cc2cccc(OC)c2oc1=N (stereo unspecified)"
  value_qualifier: "="
  reported_measurement: 39
- compound: "COc1cccc2cc(C(=O)Nc3c(C#N)ncn3-c3ccccc3)c(=N)oc12"
  value_qualifier: "="
  reported_measurement: 9
- compound: "O=C(O)CNC(=O)c1cc2ccccc2oc1=O"
  value_qualifier: "="
  reported_measurement: 9
- compound: "COc1cccc2cc(C(=O)N[C@@H](CO)C(=O)O)c(=O)oc12"
  value_qualifier: "="
  reported_measurement: 24
- compound: "COc1cccc2cc(C(=O)Nc3c(C#N)ncn3-c3ccc(C#N)cc3)c(=N)oc12"
  value_qualifier: "="
  reported_measurement: 10
- compound: "O=C(NC1CCCC1)c1cc2ccccc2oc1=O"
  value_qualifier: "="
  reported_measurement: 18
- compound: "COc1cccc2cc(C(=O)NCCCO)c(=N)oc12"
  value_qualifier: "="
  reported_measurement: 42
- compound: "COCCNC(=O)c1cc2cccc(OC)c2oc1=O"
  value_qualifier: "="
  reported_measurement: 18
- compound: "COc1cccc2cc(C(=O)NCCCCCO)c(=N)oc12"
  value_qualifier: ">"
  reported_measurement: 70
- compound: "COc1cccc2cc(C(=O)NC3CCCC3)c(=N)oc12"
  value_qualifier: "="
  reported_measurement: 47
- compound: "O=C(NCCCN1CCN(CCCNC(=O)c2cc3ccccc3oc2=O)CC1)c1cc2ccccc2oc1=O"
  value_qualifier: "="
  reported_measurement: 22
- compound: "N=c1oc2ccc(Br)cc2cc1C(=O)NCC(O)CO (stereo unspecified)"
  value_qualifier: "="
  reported_measurement: 4
- compound: "COc1cccc2cc(C(=O)NC3CCCCC3)c(=N)oc12"
  value_qualifier: ">"
  reported_measurement: 70
- compound: "O=C(NCCCO)c1cc2ccccc2oc1=O"
  value_qualifier: "="
  reported_measurement: 19
- compound: "N=c1oc2ccc(Br)cc2cc1C(=O)NC1CCCCC1"
  value_qualifier: "="
  reported_measurement: 10
- compound: "COc1cccc2cc(C(=O)NC(CO)(CO)CO)c(=N)oc12"
  value_qualifier: "="
  reported_measurement: 28
- compound: "COc1cccc2cc(C(=O)NCCCN3CCN(CCCNC(=O)c4cc5cccc(OC)c5oc4=N)CC3)c(=N)oc12"
  value_qualifier: ">"
  reported_measurement: 70

Origin of values: ChEMBL document CHEMBL2040792
